Numbers sourced from ChEMBL document CHEMBL5724801.

System: U2OS
procedureDetails: Multiplex assay against U2OS
Assay type: toxicity, cell-based
assayConditions: human, 48 h, 1 µM, compound concentration 1 uM
parameterMeasured: Population Normal (%)
Reply numerically in %, unit not repeated.

Worked set:
structureString | parameterMeasured | observedMeasurement
O=C(Nc1ccccc1Br)N[C@@H]1CCN(c2ccc(C(F)(F)F)cn2)C1 | Population Normal (%) | 100
CNc1nc(NCc2ncccn2)c2c(-c3ccc4ncccc4c3)c[nH]c2n1 | Population Normal (%) | 100
Clc1ccccc1C(c1ccccc1)(c1ccccc1)n1cccn1 | Population Normal (%) | 100
CN(C)c1ccnc2sc3c(=O)n(N4CCCCCC4)cnc3c12 | Population Normal (%) | 97

What Population Normal (%) value was documented for this compound, COCCNc1nc2ccc(C#CC3(O)CCCCC3)cc2n1-c1ccnc(N)n1 ?
100
